Molecular target: UniProt P08913
Sequence (P08913 whole entry): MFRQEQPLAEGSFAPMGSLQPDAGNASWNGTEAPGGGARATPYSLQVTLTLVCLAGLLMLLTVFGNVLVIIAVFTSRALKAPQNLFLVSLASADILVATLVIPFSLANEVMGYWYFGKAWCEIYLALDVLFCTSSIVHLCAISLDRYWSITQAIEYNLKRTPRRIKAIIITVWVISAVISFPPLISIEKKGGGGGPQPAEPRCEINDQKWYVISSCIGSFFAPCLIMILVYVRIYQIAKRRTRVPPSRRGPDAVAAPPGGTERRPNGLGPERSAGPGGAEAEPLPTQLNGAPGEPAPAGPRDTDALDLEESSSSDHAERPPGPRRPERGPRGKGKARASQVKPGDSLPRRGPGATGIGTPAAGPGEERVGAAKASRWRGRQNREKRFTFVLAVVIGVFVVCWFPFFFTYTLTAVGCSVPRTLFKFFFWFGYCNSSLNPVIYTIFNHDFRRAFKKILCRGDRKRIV
Assay: Binding affinity against human alpha 2A adrenergic receptor in CHO cells using [3H]RX-821002 as radioligand
Assay type: cell-based
pKi by entry:
Measured attribute: pKi

1) O=[N+]([O-])c1ccc2c(c1)CNC(C(F)(F)F)C2 (centres undefined)    3.4
2) O=[N+]([O-])c1ccc2c(c1)CNC(CO)C2 (centres undefined)    3.9
3) O=[N+]([O-])c1ccc2c(c1)CNCC2    3.2
4) O=[N+]([O-])c1ccc2c(c1)CNC(CF)C2 (centres undefined)    3.2
5) CC1Cc2ccc([N+](=O)[O-])cc2CN1 (centres undefined)    4.84
6) FC(F)(F)C1Cc2ccc(Br)cc2CN1 (centres undefined)    4.35
7) Clc1ccc2c(c1Cl)CNCC2    6.52
8) NS(=O)(=O)c1ccc2c(c1)CNCC2    3.4
9) O=[N+]([O-])c1ccc2c(c1)CNC(C(F)F)C2 (centres undefined)    3.6

* * *

Target: Adrenergic receptor alpha-2 (Rattus norvegicus, UniProt P22086+P19328+P22909)
Sequence (P22086 whole entry): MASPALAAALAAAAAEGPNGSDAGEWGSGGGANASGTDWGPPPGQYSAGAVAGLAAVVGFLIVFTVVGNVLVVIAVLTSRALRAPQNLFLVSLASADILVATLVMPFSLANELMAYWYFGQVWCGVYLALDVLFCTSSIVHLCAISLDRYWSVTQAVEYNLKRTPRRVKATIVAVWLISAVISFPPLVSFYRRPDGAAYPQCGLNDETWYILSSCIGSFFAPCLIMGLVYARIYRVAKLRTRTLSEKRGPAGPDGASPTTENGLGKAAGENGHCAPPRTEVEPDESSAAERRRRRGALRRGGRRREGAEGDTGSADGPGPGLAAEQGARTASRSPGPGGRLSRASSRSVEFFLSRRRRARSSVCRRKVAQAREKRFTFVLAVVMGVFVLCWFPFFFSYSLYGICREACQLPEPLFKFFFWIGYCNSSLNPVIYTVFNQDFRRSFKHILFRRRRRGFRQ
Sequence (P19328 whole entry): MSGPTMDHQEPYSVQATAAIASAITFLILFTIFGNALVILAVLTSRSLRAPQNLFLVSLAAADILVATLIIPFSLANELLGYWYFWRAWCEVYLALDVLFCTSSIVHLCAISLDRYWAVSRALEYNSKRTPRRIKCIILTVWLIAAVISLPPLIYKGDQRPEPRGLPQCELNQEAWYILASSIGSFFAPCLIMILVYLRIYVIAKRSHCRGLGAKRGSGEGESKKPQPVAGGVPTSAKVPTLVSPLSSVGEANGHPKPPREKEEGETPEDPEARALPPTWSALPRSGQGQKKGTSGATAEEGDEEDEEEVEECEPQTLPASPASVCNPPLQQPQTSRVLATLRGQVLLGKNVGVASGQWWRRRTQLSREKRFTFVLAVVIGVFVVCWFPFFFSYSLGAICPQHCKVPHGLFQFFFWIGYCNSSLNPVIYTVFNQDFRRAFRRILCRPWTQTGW
Sequence (P22909 whole entry): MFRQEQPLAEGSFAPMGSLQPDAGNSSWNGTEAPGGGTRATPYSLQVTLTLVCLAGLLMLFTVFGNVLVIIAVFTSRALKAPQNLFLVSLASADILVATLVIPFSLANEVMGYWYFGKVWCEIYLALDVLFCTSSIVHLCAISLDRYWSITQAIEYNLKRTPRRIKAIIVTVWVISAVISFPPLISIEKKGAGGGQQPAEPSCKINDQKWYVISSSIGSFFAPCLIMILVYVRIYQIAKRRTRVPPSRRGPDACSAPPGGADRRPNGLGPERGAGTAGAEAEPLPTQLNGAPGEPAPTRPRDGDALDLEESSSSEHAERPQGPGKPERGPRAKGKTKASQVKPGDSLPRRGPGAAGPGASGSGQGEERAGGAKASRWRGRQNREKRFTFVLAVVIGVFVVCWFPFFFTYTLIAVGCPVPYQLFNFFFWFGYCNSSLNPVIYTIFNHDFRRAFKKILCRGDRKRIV
Assay: Binding affinity against alpha 2 adrenergic receptor in rat cortex using [3H]clonidine as radioligand
Type: tissue-based
Hi! Just check whether Ki is below 50 µM. Below gives T, equal or above gives F.

1. O=[N+]([O-])c1ccc2c(c1)CNC(CCCO)C2 (stereo not given)    F
2. O=[N+]([O-])c1ccc2c(c1)CNC(CCO)C2 (stereo not given)    T
3. OCCC1Cc2ccc(Br)cc2CN1 (stereo not given)    T
4. OCC1Cc2ccc(Br)cc2CN1 (stereo not given)    T
5. OCCCC1Cc2ccc(Br)cc2CN1 (stereo not given)    T
